Molecular target: human androgen receptor (Homo sapiens, UniProt P10275)
Construct: expressed in transfected cells; host or cells: COS-7 cells (ATCC)
Sequence (P10275 whole entry): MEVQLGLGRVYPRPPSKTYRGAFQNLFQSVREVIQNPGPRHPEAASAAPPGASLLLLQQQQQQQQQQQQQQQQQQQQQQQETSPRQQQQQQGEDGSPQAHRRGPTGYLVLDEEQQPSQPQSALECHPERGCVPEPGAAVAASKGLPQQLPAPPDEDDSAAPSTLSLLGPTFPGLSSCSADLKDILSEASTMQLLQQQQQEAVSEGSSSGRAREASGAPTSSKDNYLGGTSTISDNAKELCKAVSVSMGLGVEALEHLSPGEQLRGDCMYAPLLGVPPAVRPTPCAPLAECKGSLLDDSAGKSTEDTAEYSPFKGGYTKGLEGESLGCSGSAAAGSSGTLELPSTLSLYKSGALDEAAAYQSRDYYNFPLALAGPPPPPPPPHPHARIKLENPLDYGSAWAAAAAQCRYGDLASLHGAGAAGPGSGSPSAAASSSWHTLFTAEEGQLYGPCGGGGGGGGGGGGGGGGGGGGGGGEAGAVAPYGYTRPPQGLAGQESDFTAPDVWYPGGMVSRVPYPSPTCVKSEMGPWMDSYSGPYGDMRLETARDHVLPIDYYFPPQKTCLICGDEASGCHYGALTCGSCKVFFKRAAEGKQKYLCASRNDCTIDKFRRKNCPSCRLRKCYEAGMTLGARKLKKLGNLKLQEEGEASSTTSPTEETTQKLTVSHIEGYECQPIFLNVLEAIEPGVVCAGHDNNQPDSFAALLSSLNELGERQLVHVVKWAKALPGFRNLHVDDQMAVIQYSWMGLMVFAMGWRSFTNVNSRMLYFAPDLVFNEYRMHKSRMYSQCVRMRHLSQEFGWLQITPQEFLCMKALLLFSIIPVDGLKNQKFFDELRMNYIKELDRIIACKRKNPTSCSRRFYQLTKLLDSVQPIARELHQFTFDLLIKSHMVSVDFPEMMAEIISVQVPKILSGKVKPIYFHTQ
Test: Antagonist activity for AR: MMTV-luc reporter transcription in COS-7 cells transfected with human AR, stimulated with DHT
Assay type: cell-based
OUTCOME MEASURE: log10 IC50 (log10 of the value in nM)
// units: nM (pre-log); metric: IC50; scale: log10

Completed entries (count: 10):
SMILES RECORD	ASSAYED TARGET	NUMBER
N#Cc1ccc(N2CCc3c(ncnc3Nc3ccc(N4CC5(COC5)C4)cc3)C2)cc1Cl	human androgen receptor (Homo sapiens, UniProt P10275)	2.83
CC(C)(C)OC(=O)N1Cc2ccc(Nc3ncnc4c3CCN(c3ccc(C#N)c(Cl)c3)C4)cc2C1	human androgen receptor (Homo sapiens, UniProt P10275)	2.34
CC(C)(O)c1ccc(Nc2ncnc3c2CCN(c2ccc([N+](=O)[O-])c(Br)c2)C3)nc1	human androgen receptor (Homo sapiens, UniProt P10275)	1.48
CC(C)(O)c1ccc(Nc2ncnc3c2CCN(c2ccc([N+](=O)[O-])c(C(F)(F)F)c2)C3)nc1	human androgen receptor (Homo sapiens, UniProt P10275)	1.85
CCNC(=O)c1ccc(Nc2ncnc3c2CCN(c2ccc(C#N)c(C(F)(F)F)c2)C3)nc1F	human androgen receptor (Homo sapiens, UniProt P10275)	1.65
CNC(=O)c1ccc(Nc2ncnc3c2CCN(c2ccc(C#N)c(Cl)c2)C3)nc1F	human androgen receptor (Homo sapiens, UniProt P10275)	1.52
N#Cc1ccc(N2CCc3c(ncnc3Nc3ccc(OCCCN4CCNCC4)c(C(F)(F)F)c3)C2)cc1Cl	human androgen receptor (Homo sapiens, UniProt P10275)	2.98
CCNC(=O)c1ccc(Nc2ncnc3c2CCN(c2ccc(C#N)c(C(F)(F)F)c2)C3)nc1	human androgen receptor (Homo sapiens, UniProt P10275)	2.00
CNC(=O)c1ccc(Nc2ncnc3c2CCN(c2ccc(C#N)c(C(F)(F)F)c2)C3)nc1F	human androgen receptor (Homo sapiens, UniProt P10275)	1.49
N#Cc1ccc(N2CCc3c(ncnc3Nc3ccc(OC(F)(F)F)cc3)C2)cc1C(F)(F)F	human androgen receptor (Homo sapiens, UniProt P10275)	3.00

Input: # get_value(readout= log10 IC50, system= human androgen receptor (Homo sapiens, UniProt P10275)) for CC(=O)N1CCN(CCCOc2ccc(Nc3ncnc4c3CCN(c3ccc(C#N)c(Cl)c3)C4)cc2C(F)(F)F)CC1
Output: 2.48

Input: # get_value(readout= log10 IC50, system= human androgen receptor (Homo sapiens, UniProt P10275)) for C#CCNC(=O)c1ccc(Nc2ncnc3c2CCN(c2ccc(C#N)c(C(F)(F)F)c2)C3)nn1
Output: 1.40

Input: # get_value(readout= log10 IC50, system= human androgen receptor (Homo sapiens, UniProt P10275)) for CC(=O)N1CCN(CCCOc2ccc(Nc3ncnc4c3CCN(c3ccc(C#N)c(Cl)c3)C4)cc2Cl)CC1
Output: 2.75

Input: # get_value(readout= log10 IC50, system= human androgen receptor (Homo sapiens, UniProt P10275)) for N#Cc1ccc(N2CCc3c(ncnc3Nc3ccc4c(c3)CNCC4)C2)cc1Cl
Output: 2.84

Input: # get_value(readout= log10 IC50, system= human androgen receptor (Homo sapiens, UniProt P10275)) for CCNC(=O)c1ccc(Nc2ncnc3c2CCN(c2ccc(C#N)c(Cl)c2)C3)nc1F
Output: 0.41

Sourced from patent US10370372B2
